Tested on: MS2 coat protein
Assay: apparent KD of MS2 coat protein; higher = weaker reporter binding
Details: Eterna round: R107; input ligand: arginine 13.2 mM
Reported apparent KD of MS2 coat protein values are given for each entry in this list.
Enter your answer as a number in nM; do not include the unit.

Worked examples follow.
{"columns": ["SEQUENCE CHAIN", "RECORDED MEASUREMENT"],
 "data": [
  ["GAUGAUAUUGCAGAUACCAGACACAUGAGGAUCACCCAUGUCUCUGUGAUGUAGGAUUGUGUCCCUUGGCAGCUGCGAUAUCAUC [Chile]", 88],
  ["UAACAUGAGGAUCACCCAUGUAUAGUCGAUACCAGCUCAAGGAAGAGCCCUUGGCAGCGACACUGCCAAGCAUGGGUCAUGGCAG [(Ms2)-(Theo)-(T)'-(M)'-(T)''_Design5]", 20.7]
]}

Kindly review the next sequence as well.
Exercise: Item: AUUAUCAUGGUCAUAUAUAUUUCGUCAGAUACCAGACUAGAUAUAGUCCCUUGGCAGCUGUUACAUGAGGAUCACCCAUGUUAUU [JR_ExcTheophyA_Sub017] Test system: MS2 coat protein Read-out: apparent KD of MS2 coat protein Value: ?
Solution: 32.2

----------
Reported apparent KD of MS2 coat protein values are given for each entry in this list.
Tested on: MS2 coat protein
Assay: apparent KD of MS2 coat protein; designed switch direction (-1 OFF switch, 1 ON switch): -1; higher = weaker reporter binding
Settings: input ligand: none
Please provide the amount together with its unit, number first.

{"columns": ["SEQUENCE CHAIN", "RECORDED MEASUREMENT"],
 "data": [
  ["CCUCUACAUGAGGAUCACCCAUGUGAGGAUAUCCUGCGAGGAUCAAAAGAUCCUCGUGGGAGAAGGCAUAUGAU [Omei Ex1 A3] (Eterna round: R97, puzzle: Exclusion 1)", "26.6 nM"],
  ["CGUGACUCAGGAUAUCUAUAGUGUCACAUGAGGAUCACCCAUGUCCAGCGAAAGCUGGAGGGAGAAGGGAGUCACG [Fiskers Ex 5 - 43] (Eterna round: R96, puzzle: Exclusion 5)", "87.7 nM"],
  ["AAGAAUCAAGGAUAUGCAUGAUACGACAUGAGGAUCACCCAUGUCCUCACGCGUAUCCUUGCAGAAGGUGAGUAUA [EX5 A.22] (Eterna round: R97, puzzle: Exclusion 5)", "15.3 nM"],
  ["UAUUAGCAAGCGAGAUCCCACAUGAGGAUCACCCAUGUGCUCGUCUUAUAAGGUACUGUGACGAAAGUCACGGUACC [Sensor 3, v1 - 91] (Eterna round: R96, puzzle: Sensor v3, turn-off variant 1)", "15.5 nM"]
]}

Kindly review the next sequence as well.
Exercise: Fill in the blank: the reported apparent KD of MS2 coat protein of GACCCACAUGAGGAUCACCCAUGUGAGGAUAUCAUGCUUCGUAGUAAACUACGAAGUGUGAGAAGGCACAAUGG [Omei Ex1 C7] (Eterna round: R97, puzzle: Exclusion 1) is ____.
Solution: 37.4 nM

----------
System: MS2 coat protein
Experiment: apparent KD of MS2 coat protein; higher = weaker reporter binding
Conditions: Eterna round: R107; input ligand: arginine 13.2 mM
MEASUREMENT KIND: apparent KD of MS2 coat protein
Please provide the amount together with its unit, number first.

Worked examples follow.
{"columns": ["SEQUENCE CHAIN", "apparent KD of MS2 coat protein"],
 "data": [
  ["AGUAAUCUAACAGAUACCAGACGGUAUAUAACAUGAGGAUCACCCAUGUCUUGGGUGUACGUCCCUUGGCAGCUGAAAAUGAUAA [JR_SSTheophyB_Sub001]", "157 nM"],
  ["AAAAGUGGGUCAAUUAUUUAAACUUCAGAAGGAGCGUGAUGUUUCACAGGUAGGUCGCUGAUAACAUGAGGAUCACCCAUGUAUU [JR_ExcArginiA_Sub007]", "30.8 nM"]
]}

Kindly review the next sequence as well.
Exercise: Fill in the blank: the reported apparent KD of MS2 coat protein of GAUGAACUAUUUGAUACCAGACUACAUGAGGAUCACCCAUGUGUGUUAAUUUUUCAGUCAGUCCCUUGGCAGCAAAUAGUUUAUC [XTheo B #2] is ____.
Solution: 42.2 nM

----------
Tested on: K4 kissing-loop RNA reporter
Assay: apparent KD of K4 kissing-loop reporter; higher = weaker reporter binding
Details: Eterna round: R107; input ligand: none
Reported apparent KD of K4 kissing-loop reporter values are given for each entry in this list.
Enter your answer as a number in nM; do not include the unit.

Worked examples follow.
{"columns": ["SEQUENCE CHAIN", "RECORDED MEASUREMENT"],
 "data": [
  ["ACGUGCACCAGUGAUGUUGGAAAAUAUGAAGGAGCGGGUGAAAACCCAGGUAGGUCGCAUAAUAGCACGAGCCACGAAAGUGGCA", 157],
  ["UGAUACCAGACGGCCGCCACUAGAGCUAGCAAAGCUAGCAAGUGAUGUUUGAGGAGUGAUGUUCCUAGGACCGGGUCUGGUAUCU [TrypBX 2 #Palindromic #SwitchBubble #StaticStem]", 96.2],
  ["AGAUGACACGGAGGAUAUCCUAAUAUGGGUGAUGUUAGCGAUGUUGAAGGUGUAGUGAUGUUAUGCGGAGAAGGCCGUGUUGUUU [BDazzled - #22 - Exc. FMN B]", 155],
  ["GAAAGGAGUGAUGUUCCUGAUAAUUUUAUGAAGGAUAUUCGAUGUGGAAGAAGGUCAUGCAGGCAGCAAGGUUGCGAUCAUAUCA [theeternabot_exclusion_KL_FMN_A_40]", 143],
  ["GCCGUACGCAUGGAUACCAGUCUUAGAGUGAUGUUCUAAUCGAUUGCGCCUGGAUCAAUGGACCCUUGGCAGCCAUGCGUACGGC", 120]
]}

Kindly review the next sequence as well.
Exercise: Fill in the blank: the reported apparent KD of K4 kissing-loop reporter of AAACGCUGUGAAUAACACAGCGAAAAUUCGCGAGGACCGGUACGGCCGCCACUCGCUAACUGCGAGUGAUGUUCGAUAAUAAAAU [Mat - Mod of OpenEnded 3 - D11] is ____.
Solution: 198

----------
Test system: K4 kissing-loop RNA reporter;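 also: bound reporter read as fluorescence of individual clusters on recovered sequencing chips by microscopy, with normalized cluster intensities fitted with a binding model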
Assay: apparent KD of K4 kissing-loop reporter; higher = weaker reporter binding
Conditions: Eterna round: R107; input ligand: theophylline 20 uM
MEASUREMENT KIND: apparent KD of K4 kissing-loop reporter (nM)
Enter your answer as a number in nM; do not include the unit.

{"columns": ["SEQUENCE CHAIN", "ASSAYED SYSTEM", "apparent KD of K4 kissing-loop reporter [nM]"],
 "data": [
  ["UGGAGUUGACGAAAAGUCAACUCCUGAGAUACCAGUGACGAAAGUCACCCUUGGCAGCUCACUGCCAGUGAUGUUGGAACUAAAG [#02 K4 Theophylline A Same State]", "K4 kissing-loop RNA reporter", 452],
  ["UGGUUUGGAAGUGAUGUUUCUAUAAGUGAUACCAGACAAAAGAAAGUCCCUUGGCAGCACAAUGAUGCCAAGGAAACGGCAUGAU [#15 K4 Theophylline A Same State]", "K4 kissing-loop RNA reporter", 157]
]}

Kindly review the next sequence as well.
Exercise: Fill in the blank: the reported apparent KD of K4 kissing-loop reporter of UUUUAUUAAUACUUCUAGUGAUGUUAGAUACGAGGACCGGUACGGCCGCCACUCGCUUAUUGGUUUAUAUAUUUUAUAUUCUUUA [JR_SSTryptoA_Sub014] is ____.
Solution: 369

----------
Test system: MS2 coat protein
Assay: apparent KD of MS2 coat protein; designed switch direction (-1 OFF switch, 1 ON switch): -1; higher = weaker reporter binding
Settings: input ligand: none
MEASUREMENT KIND: apparent KD of MS2 coat protein (nM)
Enter your answer as a number in nM; do not include the unit.

Worked examples follow.
{"columns": ["SEQUENCE CHAIN", "apparent KD of MS2 coat protein [nM]"],
 "data": [
  ["UAUUCGCAAGUGAGAUCCCACAUGAGGAUCACCCAUGUGCUCGUCUUAUAAGGUACUGUGACGAUAGUCACGGUACC [Mat - Sensor, turn-off var - Eli Mod - D80] (Eterna round: R97, puzzle: Sensor, turn-off variant 1)", 32.5],
  ["GGUUCGAAUGUGAGGAUAUGCUGGUCCUUGGAUCAGCAGAAGGCACAUGAGGAUCACCCAUGUGGUAACGGACC [Mat - Exclusion 4 - Eli Mod - D36] (Eterna round: R97, puzzle: Brourd's mod of Exclusion 4)", 357]
]}

Exercise: Fill in the blank: the reported apparent KD of MS2 coat protein of GGUCGACAUGAGGAUCACCCAUGUCAGGAUAUCUACAUUGAAGCUUCGGCUUCAAUGUAGAGAAGGGACAUAAU [E1/14-B1] (Eterna round: R97, puzzle: Exclusion 1) is ____.
Solution: 30.1

The values you see were collected from the supplement of paper PMC9170038.
